meta.source: patent US20220033501A1

# TEST SYSTEM: T1, monkey TIM-3 on CHOK1 stable cell line (CHOK1-cTIM-3) (monkey)
# T1 chain: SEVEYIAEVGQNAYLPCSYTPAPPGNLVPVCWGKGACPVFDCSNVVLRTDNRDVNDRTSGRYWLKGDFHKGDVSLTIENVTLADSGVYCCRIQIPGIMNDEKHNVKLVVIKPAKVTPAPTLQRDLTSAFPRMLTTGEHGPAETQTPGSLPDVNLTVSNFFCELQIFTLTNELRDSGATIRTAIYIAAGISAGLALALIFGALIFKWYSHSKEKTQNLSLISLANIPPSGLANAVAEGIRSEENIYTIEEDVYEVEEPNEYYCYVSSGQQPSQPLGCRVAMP
# RUN DESCRIPTION: FACS, CHOK1-cTIM-3 cells, 40 nM antibody
PROPERTY MEASURED: Mean fluorescence intensity
Write no unit; give the number alone.

BINDER	REPORTED RESULT
57F4E5 fully human TIM-3 antibody (human IgG4, kappa) (antibody, V domains shown) VH: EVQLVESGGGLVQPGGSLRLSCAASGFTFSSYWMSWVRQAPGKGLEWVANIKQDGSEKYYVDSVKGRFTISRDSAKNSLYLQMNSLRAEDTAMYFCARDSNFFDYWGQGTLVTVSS VL: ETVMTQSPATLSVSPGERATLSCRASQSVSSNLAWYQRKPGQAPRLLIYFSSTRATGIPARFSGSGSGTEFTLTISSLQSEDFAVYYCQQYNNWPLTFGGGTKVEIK	269
34B6D8 fully human TIM-3 antibody (human IgG4, kappa) (antibody, V domains shown) VH: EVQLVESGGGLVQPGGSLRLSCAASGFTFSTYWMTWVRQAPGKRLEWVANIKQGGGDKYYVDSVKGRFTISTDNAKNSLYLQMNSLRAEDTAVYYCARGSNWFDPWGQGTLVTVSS VL: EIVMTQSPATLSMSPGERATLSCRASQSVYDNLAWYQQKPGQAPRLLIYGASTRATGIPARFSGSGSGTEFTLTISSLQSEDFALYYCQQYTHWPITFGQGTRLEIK	336
7A4F10 fully human TIM-3 antibody (human IgG4, kappa) (antibody, V domains shown) VH: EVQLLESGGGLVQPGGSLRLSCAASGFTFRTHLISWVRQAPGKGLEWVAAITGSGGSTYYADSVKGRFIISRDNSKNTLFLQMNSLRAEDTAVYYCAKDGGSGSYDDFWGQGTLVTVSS VL: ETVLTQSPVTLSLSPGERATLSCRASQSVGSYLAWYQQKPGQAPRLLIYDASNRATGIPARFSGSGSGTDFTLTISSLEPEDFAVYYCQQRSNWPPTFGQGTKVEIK	336
39E5H1 fully human TIM-3 antibody (human IgG4, kappa) (antibody, V domains shown) VH: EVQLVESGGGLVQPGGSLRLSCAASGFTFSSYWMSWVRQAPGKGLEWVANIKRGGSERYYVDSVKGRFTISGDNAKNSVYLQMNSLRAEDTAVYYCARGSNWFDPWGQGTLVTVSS VL: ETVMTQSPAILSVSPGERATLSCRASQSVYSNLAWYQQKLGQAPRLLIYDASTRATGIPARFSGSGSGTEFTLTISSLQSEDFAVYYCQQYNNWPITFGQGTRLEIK	337
18D2H2 fully human TIM-3 antibody (human IgG4, kappa) (antibody, V domains shown) VH: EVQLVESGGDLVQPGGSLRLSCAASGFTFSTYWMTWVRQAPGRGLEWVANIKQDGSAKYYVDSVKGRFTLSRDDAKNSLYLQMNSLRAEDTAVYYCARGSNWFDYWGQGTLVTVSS VL: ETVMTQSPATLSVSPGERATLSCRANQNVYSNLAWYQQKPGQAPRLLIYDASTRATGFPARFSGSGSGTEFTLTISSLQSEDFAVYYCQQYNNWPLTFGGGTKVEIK	462

Shift focus to the following entry.
Task: Return reported Mean fluorescence intensity; argument: 134H3G6 fully human TIM-3 antibody (human IgG4, kappa) (antibody, V domains shown) VH: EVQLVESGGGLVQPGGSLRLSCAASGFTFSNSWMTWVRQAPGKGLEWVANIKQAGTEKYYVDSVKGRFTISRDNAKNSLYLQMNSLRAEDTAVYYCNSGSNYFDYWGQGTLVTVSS VL: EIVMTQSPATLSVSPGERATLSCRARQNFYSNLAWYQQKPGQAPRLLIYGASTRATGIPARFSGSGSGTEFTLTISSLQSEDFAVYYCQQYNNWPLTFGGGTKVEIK
Output: 376
